- target.desc: EGFR (ErbB1) (Homo sapiens (Human))
- Sequence (P00533 25-1210): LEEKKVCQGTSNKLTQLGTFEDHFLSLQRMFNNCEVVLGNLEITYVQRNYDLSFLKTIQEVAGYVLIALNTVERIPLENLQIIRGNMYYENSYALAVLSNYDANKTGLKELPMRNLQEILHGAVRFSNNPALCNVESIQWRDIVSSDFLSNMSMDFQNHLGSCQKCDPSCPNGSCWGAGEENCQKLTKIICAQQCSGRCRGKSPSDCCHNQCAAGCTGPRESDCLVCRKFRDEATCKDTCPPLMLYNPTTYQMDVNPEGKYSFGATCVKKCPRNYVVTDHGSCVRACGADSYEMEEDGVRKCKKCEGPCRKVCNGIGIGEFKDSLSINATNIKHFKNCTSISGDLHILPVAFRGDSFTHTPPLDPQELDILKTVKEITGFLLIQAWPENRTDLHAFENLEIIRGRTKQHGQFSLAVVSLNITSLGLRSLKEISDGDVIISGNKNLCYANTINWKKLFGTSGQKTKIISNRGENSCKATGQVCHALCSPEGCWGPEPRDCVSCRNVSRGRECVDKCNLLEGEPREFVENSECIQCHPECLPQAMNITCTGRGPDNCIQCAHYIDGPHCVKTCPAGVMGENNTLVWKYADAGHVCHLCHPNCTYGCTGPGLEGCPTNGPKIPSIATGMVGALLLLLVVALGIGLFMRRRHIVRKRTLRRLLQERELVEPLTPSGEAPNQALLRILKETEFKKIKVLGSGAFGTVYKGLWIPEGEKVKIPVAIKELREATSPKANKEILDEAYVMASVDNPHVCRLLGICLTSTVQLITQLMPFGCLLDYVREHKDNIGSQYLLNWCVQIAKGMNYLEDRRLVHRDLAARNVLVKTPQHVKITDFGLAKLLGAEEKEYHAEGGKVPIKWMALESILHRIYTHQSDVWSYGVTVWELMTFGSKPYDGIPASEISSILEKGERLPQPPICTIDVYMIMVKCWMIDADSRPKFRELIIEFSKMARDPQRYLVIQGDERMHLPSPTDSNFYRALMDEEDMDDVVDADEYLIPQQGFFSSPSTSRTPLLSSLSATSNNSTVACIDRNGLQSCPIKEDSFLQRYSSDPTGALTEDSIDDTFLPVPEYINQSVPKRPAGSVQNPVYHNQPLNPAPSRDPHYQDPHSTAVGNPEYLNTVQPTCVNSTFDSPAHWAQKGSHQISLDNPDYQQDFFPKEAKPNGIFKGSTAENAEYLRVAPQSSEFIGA
- procedure.summary: Z'-LYTE kinase inhibition assay, EGFR
- Format: biochemical
- particulars: read-out: % inhibition against EGFR (Compound at 0.041 μM)
Record form. Attribute: inhibition at 0.041 µM. Fill in for each entry.

// for each compound in input: emit inhibition at 0.041 µM
1. C=CC(=O)Nc1cccc(-c2cccc3cnc(Nc4ccc(N5CCN(C)CC5)cc4)nc23)c1Cl
2. C=CC(=O)Nc1cccc(-c2cccc3cnc(Nc4ccc(O[C@H]5CCN(C)C5)cc4)nc23)c1
3. C=CC(=O)Nc1cncc(-c2cccc3cnc(Nc4ccc(N5CCN(C)CC5)nc4)nc23)c1
4. C=CC(=O)Nc1cccc(-c2cccc3cnc(Nc4ccc(NC5CCN(CCF)CC5)cc4)nc23)c1
5. C=CC(=O)Nc1cccc(-c2cccc3cnc(Nc4ccc(NC5CCN(C(C)=O)CC5)cc4)nc23)c1
6. C=CC(=O)Nc1cccc(-c2cccc3cnc(Nc4ccc(NC5CN(CCO)C5)cc4)nc23)c1

["> 50%", "< 50%", "> 50%", "> 50%", "< 50%", "> 50%"]

// for each compound in input: emit inhibition at 0.041 µM
1. C=CC(=O)Nc1cccc(-c2c(F)ccc3cnc(Nc4ccc(N5CCN(CCF)CC5)cc4)nc23)c1
2. C=CC(=O)Nc1cccc(-c2cccc3cnc(Nc4ccc(N5CCOC5=O)cc4)nc23)c1
3. C=CC(=O)Nc1cccc(-c2cccc3cnc(Nc4ccc(N5CCN(CC(N)=O)CC5)cc4F)nc23)c1
4. C=CC(=O)Nc1cccc(-c2cccc3cnc(Nc4ccc(N5CCN(CC(C)(C)O)CC5)cc4)nc23)c1
5. C=CC(=O)Nc1cccc(-c2cccc3cnc(Nc4ccc(N5CCN(C)C(C(N)=O)C5)cc4)nc23)c1 (stereo not shown)
6. C=CC(=O)Nc1cccc(-c2cccc3cnc(Nc4ccc(N5CCN(CCF)CC5)cc4)nc23)c1F
7. C=CC(=O)Nc1cccc(-c2cccc3cnc(Nc4ccc(N5CCOCC5=O)cc4)nc23)c1

> 50%
< 50%
< 50%
< 50%
< 50%
< 50%
< 50%

// for each compound in input: emit inhibition at 0.041 µM
1. C=CC(=O)Nc1cccc(-c2cccc3cnc(Nc4ccc(NCCO)cc4)nc23)c1
2. CCC(=O)Nc1cccc(-c2c(C)ccc3cnc(Nc4ccc(N5CCN(C)CC5)cc4)nc23)c1
3. C=CC(=O)Nc1cccc(-c2cccc3cnc(Nc4ccc(N5CCN(C(C)=O)CC5)cc4)nc23)c1F
4. C=CC(=O)Nc1cccc(-c2cccc3cnc(Nc4ccc(O[C@@H]5CCOC5)cc4)nc23)c1
5. C=CC(=O)Nc1cccc(-c2cccc3cnc(Nc4ccc(N5CCN(C)CC5)c(F)c4)nc23)c1
6. C=CC(=O)Nc1cccc(-c2cccc3cnc(Nc4ccc(N5CCN(C(C)=O)CC5)cc4)nc23)c1Cl

["< 50%", "> 50%", "> 50%", "< 50%", "> 50%", "< 50%"]

// for each compound in input: emit inhibition at 0.041 µM
1. C=CC(=O)Nc1cccc(-c2cccc3cnc(Nc4ccc(OC5CCN(C)CC5)cc4F)nc23)c1
2. C=CC(=O)Nc1cccc(-c2cccc3cnc(Nc4ccc(N(C)CCF)cc4)nc23)c1F
3. C=CC(=O)Nc1cccc(-c2cccc3cnc(Nc4ccc(O[C@@H]5CCN(C)C5)cc4)nc23)c1

> 50%
< 50%
> 50%
